# EXPERIMENT NOTES: Hemolytic activity in human RBC assessed as hemolysis at 1 to 128 uM relative to control
# Format: ADME, cell-based, Erythrocyte
# STUDY CONDITIONS: human red blood cells (RBC), dose 1-128 µM, read-out: Activity
Where a SMILES comes first, the peptide text is derived from it.
Below, each entry is listed alongside its reported hemolysis at up to 128 µM.

Field: example entries. Status: answers known.
1) CC(C)[C@H](N)C(=O)N[C@@H](CS)C(=O)N[C@@H](CCCNC(=N)N)C(=O)N[C@@H](CCCCN)C(=O)N1CCC[C@H]1C(=O)N[C@H](C(=O)N[C@H](C(=O)N[C@@H](CS)C(=O)N[C@@H](CCCNC(=N)N)C(=O)N[C@@H](CCCCN)C(=O)N1CCC[C@H]1C(=O)N[C@H](C(N)=O)C(C)C)C(C)C)C(C)C (H-VCRKPVVCRKPV-NH2)
< 5%
2) CC(C)[C@H](N)C(=O)N[C@@H](CS)C(=O)N[C@@H](CCCNC(=N)N)C(=O)N[C@@H](CCCCN)C(=O)N1CCC[C@H]1C(=O)N[C@H](C(=O)N[C@H](C(=O)N[C@@H](CS)C(=O)N[C@@H](CCCNC(=N)N)C(=O)N[C@@H](CCCCN)C(=O)N1CCC[C@H]1C(=O)N[C@H](C(=O)N[C@H](C(=O)N[C@@H](CS)C(=O)N[C@@H](CCCNC(=N)N)C(=O)N[C@@H](CCCCN)C(=O)N1CCC[C@H]1C(=O)N[C@H](C(N)=O)C(C)C)C(C)C)C(C)C)C(C)C)C(C)C (H-VCRKPVVCRKPVVCRKPV-NH2)
< 5%

Consider the additional molecule presented here.
So for CC[C@H](C)[C@H](N)C(=O)N[C@@H](CS)C(=O)N[C@@H](CCCNC(=N)N)C(=O)N[C@@H](CCCCN)C(=O)N1CCC[C@H]1C(=O)N[C@H](C(=O)N[C@H](C(=O)N[C@@H](CS)C(=O)N[C@@H](CCCNC(=N)N)C(=O)N[C@@H](CCCCN)C(=O)N1CCC[C@H]1C(=O)N[C@H](C(=O)N[C@H](C(=O)N[C@@H](CS)C(=O)N[C@@H](CCCNC(=N)N)C(=O)N[C@@H](CCCCN)C(=O)N1CCC[C@H]1C(=O)N[C@H](C(N)=O)[C@@H](C)CC)[C@@H](C)CC)[C@@H](C)CC)[C@@H](C)CC)[C@@H](C)CC (H-ICRKPIICRKPIICRKPI-NH2) , the logged hemolysis at up to 128 µM turned out to be < 5%

----------
# EXPERIMENT NOTES: Therapeutic index, ratio of MHC for human RBC to geometric mean of peptide MIC for Salmonella typhimurium 14028
# Format: toxicity
# STUDY CONDITIONS: human red blood cells (RBC), read-out: TI
Where a SMILES comes first, the peptide text is derived from it.
READOUT NAME: selectivity ratio
Output: the number by itself.

Lab note: measured selectivity ratio of CC(C)[C@H](N)C(=O)N[C@@H](CS)C(=O)N[C@@H](CCCNC(=N)N)C(=O)N[C@@H](CCCCN)C(=O)N1CCC[C@H]1C(=O)N[C@H](C(=O)N[C@H](C(=O)N[C@@H](CS)C(=O)N[C@@H](CCCNC(=N)N)C(=O)N[C@@H](CCCCN)C(=O)N1CCC[C@H]1C(=O)N[C@H](C(N)=O)C(C)C)C(C)C)C(C)C (H-VCRKPVVCRKPV-NH2) was 2

Measured selectivity ratio of CC[C@H](C)[C@H](N)C(=O)N[C@@H](CS)C(=O)N[C@@H](CCCNC(=N)N)C(=O)N[C@@H](CCCCN)C(=O)N1CCC[C@H]1C(=O)N[C@H](C(=O)N[C@H](C(=O)N[C@@H](CS)C(=O)N[C@@H](CCCNC(=N)N)C(=O)N[C@@H](CCCCN)C(=O)N1CCC[C@H]1C(=O)N[C@H](C(=O)N[C@H](C(=O)N[C@@H](CS)C(=O)N[C@@H](CCCNC(=N)N)C(=O)N[C@@H](CCCCN)C(=O)N1CCC[C@H]1C(=O)N[C@H](C(N)=O)[C@@H](C)CC)[C@@H](C)CC)[C@@H](C)CC)[C@@H](C)CC)[C@@H](C)CC (H-ICRKPIICRKPIICRKPI-NH2) : 11.3

Per the records, this molecule ( CC[C@H](C)[C@H](N)C(=O)N[C@H](C(=O)N[C@@H](CS)C(=O)N[C@@H](CCCNC(=N)N)C(=O)N[C@@H](CCCCN)C(=O)N1CCC[C@H]1C(=O)N[C@H](C(=O)N[C@H](C(=O)N[C@@H](CS)C(=O)N[C@@H](CCCNC(=N)N)C(=O)N[C@@H](CCCCN)C(=O)N1CCC[C@H]1C(=O)N[C@H](C(=O)N[C@H](C(N)=O)[C@@H](C)CC)[C@@H](C)CC)[C@@H](C)CC)[C@@H](C)CC)[C@@H](C)CC (H-IICRKPIICRKPII-NH2) ) has selectivity ratio equal to 4

Looking up CC(C)[C@H](N)C(=O)N[C@@H](CS)C(=O)N[C@@H](CCCNC(=N)N)C(=O)N[C@@H](CCCCN)C(=O)N1CCC[C@H]1C(=O)N[C@H](C(=O)N[C@H](C(=O)N[C@@H](CS)C(=O)N[C@@H](CCCNC(=N)N)C(=O)N[C@@H](CCCCN)C(=O)N1CCC[C@H]1C(=O)N[C@H](C(=O)N[C@H](C(=O)N[C@@H](CS)C(=O)N[C@@H](CCCNC(=N)N)C(=O)N[C@@H](CCCCN)C(=O)N1CCC[C@H]1C(=O)N[C@H](C(N)=O)C(C)C)C(C)C)C(C)C)C(C)C)C(C)C (H-VCRKPVVCRKPVVCRKPV-NH2) , I found its selectivity ratio recorded as 6.35

response.value for CC[C@H](C)[C@H](N)C(=O)N[C@@H](CS)C(=O)N[C@@H](CCCNC(=N)N)C(=O)N[C@@H](CCCCN)C(=O)N1CCC[C@H]1C(=O)N[C@H](C(=O)N[C@H](C(=O)N[C@@H](CS)C(=O)N[C@@H](CCCNC(=N)N)C(=O)N[C@@H](CCCCN)C(=O)N1CCC[C@H]1C(=O)N[C@H](C(N)=O)[C@@H](C)CC)[C@@H](C)CC)[C@@H](C)CC (H-ICRKPIICRKPI-NH2) (field: selectivity ratio) = 2

Entry CC[C@H](C)[C@H](N)C(=O)N[C@H](C(=O)N[C@H](C(=O)N[C@@H](CS)C(=O)N[C@@H](CCCNC(=N)N)C(=O)N[C@@H](CCCCN)C(=O)N1CCC[C@H]1C(=O)N[C@H](C(=O)N[C@H](C(=O)N[C@@H](CS)C(=O)N[C@@H](CCCNC(=N)N)C(=O)N[C@@H](CCCCN)C(=O)N1CCC[C@H]1C(=O)N[C@H](C(=O)N[C@H](C(=O)N[C@H](C(N)=O)[C@@H](C)CC)[C@@H](C)CC)[C@@H](C)CC)[C@@H](C)CC)[C@@H](C)CC)[C@@H](C)CC)[C@@H](C)CC (H-IIICRKPIICRKPIII-NH2) ; selectivity ratio = 6.35
